Test system: c-HaRas protein
Test: Ras GTPase stimulating activity: hydrolysis of [gamma-32P] GTP bound to c-HaRas protein, by GST fusion NF1 mutants
Assay type: biochemical, murine
Settings: 20 ug/ml NF1 mutants; 25° C., 20 minutes
MEASURED PARAMETER: Activation (fold), Ras GTPase activation
A complete answer gives the number and then names the unit.

NF 342: NF1 fragment, residues 1190-1531 (protein, UniProt P21359 1190-1531, looked up, fragment) GTEFDTLAETVLADRFERLVELVTMMGDQGELPIAMALANVVPCSQWDELARVLVTLFDSRHLLYQLLWNMFSKEVELADSMQTLFRGNSLASKIMTFCFKVYGATYLQKLLDPLLRIVITSSDWQHVSFEVDPTRLEPSESLEENQRNLLQMTEKFFHAIISSSSEFPPQLRSVCHCLYQATCHSLLNKATVKEKKENKKSVVSQRFPQNSIGAVGSAMFLRFINPAIVSPYEAGILDKKPPPRIERGLKLMSKILQSIANHVLFTKEEHMRPFNDFVKSNFDAARRFFLDIASDCPTSDAVNHSLSFISDGNVLALHRLLWNNQEKIGQYLSSNRDHKAV : 14 fold

From here, focus on the item given below.
Report Activation (fold), Ras GTPase activation for NF 327: NF1 fragment, residues 1205-1531 (protein, UniProt P21359 1205-1531, looked up, fragment) FERLVELVTMMGDQGELPIAMALANVVPCSQWDELARVLVTLFDSRHLLYQLLWNMFSKEVELADSMQTLFRGNSLASKIMTFCFKVYGATYLQKLLDPLLRIVITSSDWQHVSFEVDPTRLEPSESLEENQRNLLQMTEKFFHAIISSSSEFPPQLRSVCHCLYQATCHSLLNKATVKEKKENKKSVVSQRFPQNSIGAVGSAMFLRFINPAIVSPYEAGILDKKPPPRIERGLKLMSKILQSIANHVLFTKEEHMRPFNDFVKSNFDAARRFFLDIASDCPTSDAVNHSLSFISDGNVLALHRLLWNNQEKIGQYLSSNRDHKAV please.
14 fold
